The reported measurements were obtained from patent US8673849B2.

System: human rotavirus strain Wa
Format: cell-based
Where a SMILES comes first, the peptide text is derived from it.
endpointName: IC50 (µM)

INSERT INTO results (compound, resultvalue) VALUES
  ('C[C@H](NC(=O)[C@H](CCC(=O)O)NC(=O)CNC(=O)[C@@H](N)CC(=O)O)C(=O)O [DGEA, D-G-E-A, reference compound] (H-DGEA-OH; N-terminus and C-terminus assumed)', 311);
